src = patent US20210403576A1

# system.under.test: T1, human c-Met (Sino Biological) (human, UniProt P08581 25-932, limits assumed)
# T1 construct: Analyte in the Biacore assay; also called antigen (c-Met); printed as "human c-Met antibody (Sino Biological, Beijing, China)"
# protocol.text: derived from the Biacore KD, printed 'Average' 3.52 x10^-10 M divided by the KD
measured.endpoint: Index 1 (binding affinity, inverse KD relative to the Average 3.52)

1. VH4/Vk5 (antibody, IgG1, V domains shown, Full IgG1/kappa expressed in HEK 293 EBNA cells) VH: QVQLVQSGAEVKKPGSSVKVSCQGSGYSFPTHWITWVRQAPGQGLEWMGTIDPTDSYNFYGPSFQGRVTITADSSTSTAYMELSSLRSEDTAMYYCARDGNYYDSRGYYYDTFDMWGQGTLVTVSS VL: EIVLTQSPGTLSLSPGERATLSCRASQGISTYLAWYQQKPGQAPRLLIYSASTLESGIPDRFSGSGSGTDFTLTISRLEPEDFATYYCQQADSFPLTFGGGTKVEIK
0.669
2. VH0/Vk2 (antibody, IgG1, V domains shown, Full IgG1/kappa expressed in HEK 293 EBNA cells) VH: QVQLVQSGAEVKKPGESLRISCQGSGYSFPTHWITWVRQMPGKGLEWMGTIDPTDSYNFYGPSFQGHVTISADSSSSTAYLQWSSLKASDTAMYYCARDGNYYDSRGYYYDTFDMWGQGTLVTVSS VL: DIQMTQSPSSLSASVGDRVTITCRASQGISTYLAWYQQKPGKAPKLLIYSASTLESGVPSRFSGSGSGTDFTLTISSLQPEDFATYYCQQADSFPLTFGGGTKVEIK
0.688
3. VH0/Vk0 (antibody, IgG1, V domains shown, Full IgG1/kappa with the variable domains of 1E4; also called 1E4 antibody variant including the constant domain where the residues were substituted) VH: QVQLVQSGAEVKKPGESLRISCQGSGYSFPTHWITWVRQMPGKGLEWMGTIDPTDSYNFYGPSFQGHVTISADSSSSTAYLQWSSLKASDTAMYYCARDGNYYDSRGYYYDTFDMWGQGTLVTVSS VL: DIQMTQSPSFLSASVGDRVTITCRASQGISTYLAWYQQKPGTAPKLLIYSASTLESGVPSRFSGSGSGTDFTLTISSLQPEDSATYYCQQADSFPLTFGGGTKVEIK
0.677
4. VH2/Vk0 (antibody, IgG1, V domains shown, Full IgG1/kappa expressed in HEK 293 EBNA cells) VH: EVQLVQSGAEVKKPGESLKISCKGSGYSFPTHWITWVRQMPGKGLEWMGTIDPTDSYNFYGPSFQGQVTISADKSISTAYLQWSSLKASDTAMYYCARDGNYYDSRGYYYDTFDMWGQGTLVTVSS VL: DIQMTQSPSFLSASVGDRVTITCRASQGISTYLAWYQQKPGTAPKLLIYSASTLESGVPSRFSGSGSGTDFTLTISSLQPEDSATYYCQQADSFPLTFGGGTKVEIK
0.659
5. VH4/Vk0 (antibody, IgG1, V domains shown, Full IgG1/kappa expressed in HEK 293 EBNA cells) VH: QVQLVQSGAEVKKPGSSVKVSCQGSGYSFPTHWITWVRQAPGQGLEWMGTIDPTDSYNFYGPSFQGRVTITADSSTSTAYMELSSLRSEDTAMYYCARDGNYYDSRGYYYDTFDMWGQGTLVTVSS VL: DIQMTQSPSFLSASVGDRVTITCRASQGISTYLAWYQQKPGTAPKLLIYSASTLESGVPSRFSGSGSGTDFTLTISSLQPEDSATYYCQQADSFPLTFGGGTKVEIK
0.891
6. VH3/Vk2 (antibody, IgG1, V domains shown, Full IgG1/kappa expressed in HEK 293 EBNA cells) VH: QVQLVQSGAEVKKPGSSVKVSCQGSGYSFPTHWITWVRQAPGQGLEWMGTIDPTDSYNFYGPSFQGRVTITADSSTSTAYLQWSSLKASDTAMYYCARDGNYYDSRGYYYDTFDMWGQGTLVTVSS VL: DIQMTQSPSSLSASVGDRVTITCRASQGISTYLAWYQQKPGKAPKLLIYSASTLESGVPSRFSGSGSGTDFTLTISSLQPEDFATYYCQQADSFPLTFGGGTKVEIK
0.738
